TARGET_ENTITY: T1, human ACVR2A (human, UniProt P27037 20-135, limits assumed); further: test concentration or dose not given here
T1 construct: also called activin receptor, type II A
METHOD: ELISA
RESULT_TYPE: optical density (OD)
Field format: number, assumed OD, no unit text.

Known results for binders:
# BINDER, UNIT_NAME, REPORTED
records = [
    ("369_C11 (antibody, V domains shown, Group II) VH: EVQLLESGGGLVQPGGSLRLSCAASGFTFSDYGMHWVRQAPGKGLEWVAGINYNGGYTGYADSVKGRFTISRDNSKNTLYLQMNSLRAEDTAVYYCARAATWHDTHLDYWGQGTLVTVSS VL: DIQMTQSPSSLSASVGDRVTITCRASQSILSYLNWYQQKPGKAPKLVIYAATSRASGVPSRFSGSGSGTDFTLTISSLQPEDFATYYCQQSYDTPLTFGGGTKVEIK", "OD", 2.8),
    ("370_D06 (antibody, V domains shown, Group I) VH: EVQLLESGGGLVQPGGSLRLSCAASGFTFSSYGMNWVRQAPGKGLEWVASINYNGGYTSYADSVKGRFTISRDNSKNTLYLQMNSLRAEDTAVYYCARAANWHDTHLDYWGQGTLVTVSS VL: DIQMTQSPSSLSASVGDRVTITCRASQSIISYLNWYQQKPGKAPKLVIYAATSLASGVPSRFSGSGSGTDFTLTISSLQPEDFATYYCQQSYSSPLTFGGGTKVEIK", "OD", 2.26),
    ("370_B07 (antibody, V domains shown, Group II) VH: EVQLLESGGGLVQPGGSLRLSCAASGFTFSSYGMHWVRQAPGKGLEWVANINYNSGYKSYADSVKGRFTISRDNSKNTLYLQMNSLRAEDTAVYYCARAATWHDTHLDYWGQGTLVTVSS VL: DIQMTQSPSSLSASVGDRVTITCRASQSILTYVNWYQQKPGKAPKLLIYAATSRHSGVPSRFSGSGSGTDFTLTISSLQPEDFATYYCQQSYSSPLTFGGGTKVEIK", "OD", 1.91),
]

Query: optical density; subject: 366_G06 (antibody, V domains shown, Group I) VH: EVQLLESGGGLVQPGGSLRLSCAASGFTFSSYGMHWVRQAPGKGLEWVASINYNGGYTGYADSVKGRFTISRDNSKNTLYLQMNSLRAEDTAVYYCARAANWHDTHLDYWGQGTLVTVSS VL: DIQMTQSPSSLSASVGDRVTITCRASQSIVSYVNWYQQKPGKAPKLVIYAATSRASGVPSRFSGSGSGTDFTLTISSLQPEDFATYYCQQSYDNPLTFGGGTKVEIK
2.68

Which optical density is reported for this binder? 368_A02 (antibody, V domains shown, Group I) VH: EVQLLESGGGLVQPGGSLRLSCAASGFTFDSYGMNWVRQAPGKGLEWVAGINYNGGYKSYADSVKGRFTISRDNSKNTLYLQMNSLRAEDTAVYYCARAANWHDTHLDYWGQGTLVTVSS VL: DIQMTQSPSSLSASVGDRVTITCRASQSIISYVNWYQQKPGKAPKLVIYAATSRASGVPSRFSGSGSGTDFTLTISSLQPEDFATYYCQQSYDTPLTFGGGTKVEIK
2.57
